Below, each entry is listed with its recorded IC50.
Study system: Adenosine kinase (Mycobacterium tuberculosis (strain CDC 1551 / Oshkosh))
Sequence (P9WID4 whole entry): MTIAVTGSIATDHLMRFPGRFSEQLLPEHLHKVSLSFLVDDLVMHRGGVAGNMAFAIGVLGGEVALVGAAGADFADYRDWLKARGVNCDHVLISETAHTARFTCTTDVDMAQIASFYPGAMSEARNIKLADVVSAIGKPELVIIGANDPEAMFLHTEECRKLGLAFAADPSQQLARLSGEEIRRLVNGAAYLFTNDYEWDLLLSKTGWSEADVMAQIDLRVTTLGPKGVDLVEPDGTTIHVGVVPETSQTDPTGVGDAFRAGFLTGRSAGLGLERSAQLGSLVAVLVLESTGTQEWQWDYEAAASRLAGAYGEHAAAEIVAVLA
Protocol text: Inhibition of Mycobacterium tuberculosis ADK
Provide the reading as a plain figure in nM.

Compound smiles	Observable	Quantity unit	Data value
OC[C@H]1O[C@@H](n2ccc3c(-c4cccc5c4oc4ccccc45)nc(F)nc32)[C@H](O)[C@@H]1O	IC50	nM	180

We next turn to a different molecule, shown below.
Asked: Determine its reported IC50: OC[C@H]1O[C@@H](n2ccc3c(-c4cc5ccccc5o4)nc(F)nc32)[C@H](O)[C@@H]1O
Given back: 1200

---

Study system: Thymidylate kinase (Homo sapiens)
Sequence (P23919 whole entry): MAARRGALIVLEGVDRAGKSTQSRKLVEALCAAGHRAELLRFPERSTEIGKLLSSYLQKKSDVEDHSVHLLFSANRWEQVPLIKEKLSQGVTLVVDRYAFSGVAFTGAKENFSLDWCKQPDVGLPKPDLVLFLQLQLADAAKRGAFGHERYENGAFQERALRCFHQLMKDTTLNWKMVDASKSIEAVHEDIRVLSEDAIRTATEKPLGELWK
Observable: pKi
Conceptually, pKi converts a concentration in mol/L into minus its log10.

Asked: Print Thymidylate kinase (Homo sapiens) pKi for Cc1cn([C@H]2C[C@H](O)[C@@H](CNC(=S)Nc3ccc(Cl)c(C(F)(F)F)c3)O2)c(=O)[nH]c1=O .
Given back: 3.44
